# System: DU-145
# Test Description: NCI tumour cell line growth inhibition, 48 h
Calls of active or inactive are those of the source. No stated cut-off is given here; in the data, active = GI50 up to about 1.1 µM and inactive = higher.
Recorded Metric: GI50

Consider the following illustrative entries.
Compound	GI50
O=C1CC(=O)n2cnc3cccc(c32)N1	> 100 µM (inactive)
N/C(=N/c1ccc(O)cc1)S(=O)(=O)O	> 100 µM (inactive)
S=C(Nc1ccc2c(c1)oc1ccccc12)c1cccs1	40.8 µM (inactive)
CC(=O)/C(=C/n1c(=S)[nH]c2ccccc21)C(=O)Nc1ccccc1C	> 100 µM (inactive)
O=c1[nH]nc(-c2ccccc2)n1/N=C\CC/C=N\n1c(-c2ccccc2)n[nH]c1=O	> 59.2 µM (inactive)

Q: // query GI50 value for entry COc1cc2ccc(=O)oc2cc1O
A: > 100 µM (inactive)

Q: Please report the recorded GI50 for Nc1ncnc2c1ncn2C1CCC(CP(=O)(O)O)C1 (stereo unspecified) .
A: > 100 µM (inactive)

Q: Item under review: O=C(O)c1cc(-c2ccc3cc(O)c(O)cc3c2)ccc1O . Reported GI50?
A: > 12.5 µM (inactive)

Q: Endpoint output: GI50 of O=C1CCCCC1=C(I)I . Value?
A: 19.7 µM (inactive)

Q: So what's the measured GI50 for this one? CCOC(=O)CCC(C(=O)OCC)n1nc2ccc(Nc3c(C)[n+]([O-])c4cc(F)c(OCC)cc4[n+]3[O-])cc2n1 (stereo unspecified)
A: > 100 µM (inactive)

Q: For COc1ccc2oc(=O)c(-c3csc(C)n3)cc2c1 , what is its reported GI50?
A: > 100 µM (inactive)
